Let's look at some compounds and their measured pIC50.
Tested On: TGR (GSSG reducing activity) (Schistosoma mansoni, UniProt Q962Y6)
Sequence (Q962Y6 1-598): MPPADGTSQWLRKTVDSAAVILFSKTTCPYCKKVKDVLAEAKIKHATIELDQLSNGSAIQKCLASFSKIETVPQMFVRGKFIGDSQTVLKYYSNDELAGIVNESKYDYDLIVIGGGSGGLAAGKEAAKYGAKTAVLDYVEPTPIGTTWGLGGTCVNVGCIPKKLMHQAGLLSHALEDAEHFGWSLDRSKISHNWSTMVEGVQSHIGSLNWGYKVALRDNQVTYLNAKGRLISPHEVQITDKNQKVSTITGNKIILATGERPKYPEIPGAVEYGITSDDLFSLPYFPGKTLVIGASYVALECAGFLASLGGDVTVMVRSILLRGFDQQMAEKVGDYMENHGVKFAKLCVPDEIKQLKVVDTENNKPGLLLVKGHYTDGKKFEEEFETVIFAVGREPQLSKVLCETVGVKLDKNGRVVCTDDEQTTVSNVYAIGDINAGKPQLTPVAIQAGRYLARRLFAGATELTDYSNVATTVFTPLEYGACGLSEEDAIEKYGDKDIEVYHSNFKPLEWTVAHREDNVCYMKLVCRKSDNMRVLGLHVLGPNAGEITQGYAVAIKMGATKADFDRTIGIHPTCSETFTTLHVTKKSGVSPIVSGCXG
pIC50: −log10 of the molar value.
Measure: pIC50

> print(dat)
                                   compound  readout.number
1  CCOC(=O)C(C(=O)OCC)c1cc(Br)c2noc3c2c1C(=O)c1ccccc1-3 [Compound 6]            6.82
2  COc1ccc([N+](=O)[O-])c(S(=O)(=O)c2ccc(Cl)cc2)n1 [Compound 5, TRi-1]            7.30
3  COC(=O)CS(=O)(=O)c1nnc(C(Cc2ccccc2)NC(=O)OC(C)(C)C)o1 (centres unmarked) [Compound 1]            6.41
4  O=[N+]([O-])c1ccc2c(c1)S(=O)(=O)C=C2 [Compound 4, Stattic]            5.66
5  Oc1ccc(CNc2cccc(C(F)(F)F)c2)c2cccnc12 [Compound 7]            6.89
6  CCN(c1ccccc1)S(=O)(=O)c1ccc(NC(=O)c2nc(S(C)(=O)=O)ncc2Cl)cc1 [Compound 2]            6.64
7  COc1ccc(C(Nc2cc(C)ccn2)c2ccc3ccc(C)nc3c2O)cc1 (centres unmarked) [Compound 8]            6.48
8  O=c1c(Cl)c(-n2cc(CO)nn2)cnn1-c1ccccc1 [Compound 3]            5.60

Measured values drawn from paper PMC7072008 for this set.
